target-system: Adenosine receptor A1 (Homo sapiens, UniProt P30542)
Sequence (P30542 whole entry): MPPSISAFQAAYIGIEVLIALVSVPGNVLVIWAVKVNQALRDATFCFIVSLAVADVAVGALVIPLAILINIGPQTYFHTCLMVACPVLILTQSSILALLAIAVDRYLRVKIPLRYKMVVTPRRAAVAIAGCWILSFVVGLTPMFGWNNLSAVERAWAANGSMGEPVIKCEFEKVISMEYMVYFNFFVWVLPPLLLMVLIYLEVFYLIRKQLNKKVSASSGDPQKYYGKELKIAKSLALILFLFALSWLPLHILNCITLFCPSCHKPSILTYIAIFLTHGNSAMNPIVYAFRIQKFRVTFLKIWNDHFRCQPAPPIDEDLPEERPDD
method: Displacement of [3H]CCPA from human recombinant adenosine A1 receptor expressed in CHO cells
The following molecules are shown together with reported Ki values.
# output: bare number, implied unit nM

The following molecules have reported results that may help.
molecule	target-system	obs-value
CONc1nc(C#Cc2ccc(F)cc2)nc2c1ncn2[C@@H]1O[C@H](CO)[C@@H](O)[C@H]1O	Adenosine receptor A1 (Homo sapiens, UniProt P30542)	2790
CONc1nc(C#CCC(C)O)nc2c1ncn2[C@@H]1O[C@H](CO)[C@@H](O)[C@H]1O (stereo not given in full)	Adenosine receptor A1 (Homo sapiens, UniProt P30542)	95
CCNC(=O)[C@H]1O[C@@H](n2cnc3c(NOC)nc(C#Cc4ccccn4)nc32)[C@H](O)[C@@H]1O	Adenosine receptor A1 (Homo sapiens, UniProt P30542)	175
CCNC(=O)[C@H]1O[C@@H](n2cnc3c(NOC)nc(C#Cc4ccc(C)cc4)nc32)[C@H](O)[C@@H]1O	Adenosine receptor A1 (Homo sapiens, UniProt P30542)	1420

Now, please, on to the next molecule.
Task item: Any idea what its Ki is? The molecule is `CCNC(=O)[C@H]1O[C@@H](n2cnc3c(NOC)nc(C#Cc4ccccc4)nc32)[C@H](O)[C@@H]1O`
Reply: 1880

* * *

The following compounds are shown together with reported pKi values.
target-system: Adenosine receptor A2a (Homo sapiens)
Sequence (P29274 whole entry): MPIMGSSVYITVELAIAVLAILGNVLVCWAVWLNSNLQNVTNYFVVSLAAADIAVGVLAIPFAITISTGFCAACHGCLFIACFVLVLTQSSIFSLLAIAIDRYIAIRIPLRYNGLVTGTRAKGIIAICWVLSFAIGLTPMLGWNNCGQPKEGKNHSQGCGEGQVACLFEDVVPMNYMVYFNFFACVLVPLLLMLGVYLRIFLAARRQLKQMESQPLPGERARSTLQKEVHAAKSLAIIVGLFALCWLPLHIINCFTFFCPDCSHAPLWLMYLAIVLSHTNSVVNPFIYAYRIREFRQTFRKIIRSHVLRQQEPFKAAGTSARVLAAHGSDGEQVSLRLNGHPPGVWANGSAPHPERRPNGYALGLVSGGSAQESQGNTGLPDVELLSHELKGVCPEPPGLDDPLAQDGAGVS
method: Displacement of [3H]NECA from human recombinant adenosine A2A receptor expressed in CHO cells
Hey, just a heads up that pKi is the negative log base 10 of the concentration in molar.

The following compounds have reported results that may help.
CONc1nc(I)nc2c1ncn2[C@@H]1O[C@H](CO)[C@@H](O)[C@H]1O 4.91
CCNC(=O)[C@H]1O[C@@H](n2cnc3c(NOC)nc(I)nc32)[C@H](O)[C@@H]1O 5.28

Now, please, on to the next compound.
Task item: Any idea what its pKi is? The compound is `CONc1nc(C#C[Si](C)(C)C)nc2c1ncn2[C@@H]1O[C@H](CO)[C@@H](O)[C@H]1O`
Reply: 5.24
